molecular target: human MC3R (Homo sapiens, UniProt P41968); construct: expressed in transfected cells; host or cells: HEK-293 cells stably expressing the GScAMP22F split-luciferase cAMP sensor (parent reporter line from Promega); MC3R clone generated in-house, G418 selection; assay: split-luciferase cAMP sensor assay, agonist mode (measurement window 1), hMC3R; type: cell-based; conditions: HEK-293 cells stably expressing hMC3R, agonist mode; read-out: MC3R cAMP EC50
Sequence (P41968 whole entry): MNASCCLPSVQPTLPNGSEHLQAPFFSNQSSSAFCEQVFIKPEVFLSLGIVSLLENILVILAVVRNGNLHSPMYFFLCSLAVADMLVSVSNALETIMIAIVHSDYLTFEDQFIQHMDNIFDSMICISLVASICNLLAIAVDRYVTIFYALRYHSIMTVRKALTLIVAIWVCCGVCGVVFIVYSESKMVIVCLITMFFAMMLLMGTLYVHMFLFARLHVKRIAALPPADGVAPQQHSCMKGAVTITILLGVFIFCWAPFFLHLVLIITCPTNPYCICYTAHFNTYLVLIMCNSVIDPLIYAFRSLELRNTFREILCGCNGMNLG
Positions of bridges follow the written chain, without caps; N, C: chain ends. Non-standard residues stand in square brackets, D forms with d. Residues, ends and D or L forms follow the SMILES beside them. Cit = NC(=O)NCCC[C@H](N)C(=O)O; Aib = CC(C)(N)C(=O)O
QUANTITY MEASURED: EC50 (nM)
Express your answer in nM, writing the number without its unit.

# EC50 (compound: N=C(N)NCCC[C@@H]1NC(=O)CNC(=O)CSC[C@@H](C(N)=O)NC(=O)[C@H](Cc2c[nH]c3ccccc23)NC(=O)[C@H](CCCNC(=N)N)NC(=O)[C@@H](Cc2ccccc2)NC1=O [CTX-1645] ({CH2CO}-GR[dF]RWC-NH2; thioether N-6) ) is 68

Briefly, EC50 measured for CC(=O)N[C@@H](CCCNC(=N)N)C(=O)N[C@H]1CSSC[C@@H](C(N)=O)NC(=O)[C@H](Cc2c[nH]c3ccccc23)NC(=O)[C@H](CCCNC(N)=O)NC(=O)[C@@H](Cc2ccccc2)NC(=O)[C@H](CCCNC(=N)N)NC(=O)C(C)(C)NC1=O [CTX-1270, Arg-cyclo(Cys-Aib-Arg-D-Phe-Cit-Trp-Cys)] (Ac-RC[Aib]R[dF][Cit]WC-NH2; disulfide 2-8) : 52
